Source of measurements: the supplement of paper PMC8975748

system: Saccharomyces cerevisiae BY4741 SeMeCo community; test: z-score of subpopulation abundance vs DMSO median, subpopulation auxotrophic for LUM; higher = larger share of this subpopulation than in DMSO controls; settings: 10 µM; 24 h; SM minimal medium; subpopulation (auxotrophy): LUM
Structures can show the parent of a compound that is named as a salt.
MEASUREMENT LABEL: z-score of subpopulation abundance
# output: bare number, no unit

Sample answers from the record:
Enquiry: Jot down z-score of subpopulation abundance (Saccharomyces cerevisiae BY4741 SeMeCo community) of CC1(C)S[C@@H]2[C@H](NC(=O)[C@H](N)c3ccccc3)C(=O)N2[C@H]1C(=O)O [Ampicillin Trihydrate] .
Return: 0.23

Enquiry: Give z-score of subpopulation abundance only, for N[C@@H]1CONC1=O [D-Cycloserine] , using Saccharomyces cerevisiae BY4741 SeMeCo community data.
Return: 0.83

Enquiry: Fetch value of z-score of subpopulation abundance on Saccharomyces cerevisiae BY4741 SeMeCo community for Nc1c(CC(=O)O)cccc1C(=O)c1ccccc1 [Amfenac Sodium Monohydrate] .
Return: -0.56

Enquiry: Name the value of z-score of subpopulation abundance reported for O=C(NCCN1CCOCC1)c1ccc(Cl)cc1 when tested on Saccharomyces cerevisiae BY4741 SeMeCo community.
Return: 0.42

Enquiry: Under Saccharomyces cerevisiae BY4741 SeMeCo community: report z-score of subpopulation abundance of COc1ccc2c(c1)c(CC(=O)O)c(C)n2C(=O)c1ccc(Cl)cc1 [Indomethacin] .
Return: 0.47

Enquiry: Using Saccharomyces cerevisiae BY4741 SeMeCo community as the test system, report measured z-score of subpopulation abundance of CN1C(C(=O)Nc2ccccn2)=C(O)c2ccccc2S1(=O)=O [Piroxicam] .
Return: -1.33

Enquiry: Lab note: record z-score of subpopulation abundance of COC(=O)C1=C(C)NC(C)=C(C(=O)OC)C1c1ccccc1[N+](=O)[O-] [Nifedipine] tested on Saccharomyces cerevisiae BY4741 SeMeCo community.
Return: 0.34

Enquiry: Specify z-score of subpopulation abundance for Cc1c(Nc2ncccc2C(=O)O)cccc1C(F)(F)F [Flunixin Meglumin] , system Saccharomyces cerevisiae BY4741 SeMeCo community.
Return: -0.14

***
Enquiry: Answer briefly: z-score of subpopulation abundance recorded on Saccharomyces cerevisiae BY4741 SeMeCo community for C[C@@H]1CC(=O)NN=C1c1ccc(NN=C(C#N)C#N)cc1 [Levosimendan]
Return: -0.29

Enquiry: Given CC1(C)S[C@@H]2[C@H](NC(=O)Cc3ccccc3)C(=O)N2[C@H]1C(=O)O [Penicillin G Sodium] , report its z-score of subpopulation abundance on Saccharomyces cerevisiae BY4741 SeMeCo community.
Return: -0.52

Enquiry: Write down measured z-score of subpopulation abundance (Saccharomyces cerevisiae BY4741 SeMeCo community) for this compound. Cc1ncc([N+](=O)[O-])n1C [Dimetridazole]
Return: -1.1

Enquiry: Enter measured z-score of subpopulation abundance, system Saccharomyces cerevisiae BY4741 SeMeCo community, for the compound shown: CN1[C@@H]2CC[C@H]1C[C@@H](OC(c1ccccc1)c1ccccc1)C2 [Benztropine mesylate]
Return: -0.36

Enquiry: Return reported z-score of subpopulation abundance for target or system Saccharomyces cerevisiae BY4741 SeMeCo community, item COc1cc(NC(C)CCCN)c2ncccc2c1 (centres undefined) [Primaquine Diphosphate] .
Return: -0.75
